target: G12C-mutant human KRAS (amino acid residues 1-188) (Homo sapiens, UniProt P01116, G12C); construct: G12D or G12C-mutant human KRAS (amino acid residues 1-188) with FLAG tag; made in house; host or cells: E. coli; assay: KRAS Binding Disruption Assay (AlphaScreen; biotinylated KRpep-2d analogue or RAF1-RBD), G12C; conditions: geometric mean, read-out: KRAS GMean IC50 (uM) MUTATION: G12C
Sequence (P01116 1-188 isoform P01116-2 G12C): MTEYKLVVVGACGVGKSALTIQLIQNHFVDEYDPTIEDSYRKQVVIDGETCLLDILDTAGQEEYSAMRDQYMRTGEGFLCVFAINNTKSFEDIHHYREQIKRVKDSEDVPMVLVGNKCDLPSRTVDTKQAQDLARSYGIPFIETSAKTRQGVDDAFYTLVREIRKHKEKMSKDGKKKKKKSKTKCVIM
We begin with a simple list: items and their reported IC50.
Assay Endpoint: IC50

1. COC(=O)C(C)(C)COc1nc(N2C[C@H]3CC[C@@H](C2)N3)c2ccc(-c3cc(O)cc4ccccc34)c(F)c2n1 :: 10 to 100 µM
2. NC1=NC(=O)C(CC(=O)N2[C@@H]3CC[C@H]2CN(c2nc(OCC45CCCN4CCC5)nc4c(F)c(-c5cc(O)cc6ccccc56)ccc24)C3)S1 (stereo partly shown) :: 0.0001 to 10 µM
3. Oc1cc(-c2ccc3c(N4C[C@H]5CC[C@@H](C4)N5)nc(N4C[C@@H](O)[C@H](O)C4)nc3c2F)c2ccccc2c1 :: 10 to 100 µM
4. CCc1cccc2[nH]cc(-c3ccc4c(N5C[C@H]6CC[C@@H](C5)N6)nc(OCC56CCCN5CCC6)nc4c3)c12 :: 10 to 100 µM
5. O=C1N=C(S)SC1CC(=O)N1[C@@H]2CC[C@H]1CN(c1nc(OCC34CCCN3CCC4)nc3c(F)c(-c4cc(O)cc5ccccc45)ccc13)C2 (stereo partly shown) :: 0.0001 to 10 µM
6. O=C1CC(CC(=O)N2[C@@H]3CC[C@H]2CN(c2nc(OCC45CCCN4CCC5)nc4c(F)c(-c5cc(O)cc6ccccc56)ccc24)C3)C(=O)N1 (stereo partly shown) :: 0.0001 to 10 µM
7. CN(C)C1(CNc2nc(N3C[C@H]4CC[C@@H](C3)N4)c3ccc(-c4cc(O)cc5ccccc45)c(F)c3n2)CCOCC1 :: 10 to 100 µM
8. Oc1cc(-c2ccc3c(N4C[C@H]5CC[C@@H](C4)N5)nc(OCC4CCCC4(F)F)nc3c2F)c2ccccc2c1 (stereo partly shown) :: 10 to 100 µM
9. CNCCc1nc(N2C[C@H]3CC[C@@H](C2)N3)c2ccc(-c3cc(O)cc4ccccc34)c(F)c2n1 :: 10 to 100 µM
10. Oc1cc(-c2ccc3c(N4C[C@H]5CC[C@@H](C4)N5)nc(N4CC(N5CC(F)C5)C4)nc3c2F)c2ccccc2c1 :: 10 to 100 µM

###

molecular target: G12D-mutant human KRAS (amino acid residues 1-188) (Homo sapiens, UniProt P01116, G12D); construct: G12D or G12C-mutant human KRAS (amino acid residues 1-188) with FLAG tag; made in house; host or cells: E. coli; assay: KRAS Binding Disruption Assay (AlphaScreen; biotinylated KRpep-2d analogue or RAF1-RBD), G12D; settings: KRAS G12D; geometric mean; read-out: KRAS GMean IC50 (uM) MUTATION: G12D
Sequence (P01116 1-188 isoform P01116-2 G12D): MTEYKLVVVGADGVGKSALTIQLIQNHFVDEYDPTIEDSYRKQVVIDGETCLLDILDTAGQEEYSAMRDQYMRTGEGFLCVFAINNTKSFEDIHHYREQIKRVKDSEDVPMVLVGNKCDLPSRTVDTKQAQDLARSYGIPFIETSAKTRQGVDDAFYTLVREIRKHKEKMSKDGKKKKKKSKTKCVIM
We begin with a simple list: items and their reported IC50.
Assay Endpoint: IC50

1) Cc1cccc2c(-c3c(F)cc4c(N5C[C@H]6CC[C@@H](C5)N6)nc(OC[C@@H]5CCCN5C)nc4c3F)c[nH]c12 :: 10 to 100 µM
2) Fc1cc2c(N3C[C@H]4CC[C@@H](C3)N4)nc(OCC34CCCN3CCC4)nc2c(F)c1-c1c[nH]c2ccc(F)c(F)c12 :: 0.0001 to 10 µM
3) CC(=O)NCC(C)(C)COc1nc(N2C[C@H]3CC[C@@H](C2)N3)c2ccc(-c3cc(O)cc4ccccc34)c(F)c2n1 :: 0.0001 to 10 µM
4) Oc1cc(-c2ccc3c(N4C[C@H]5CC[C@@H](C4)N5)nc(N4CC5CCNCC5C4)nc3c2F)c2ccccc2c1 (stereo partly shown) :: 0.0001 to 10 µM

###

biological target: G12D-mutant human KRAS (amino acid residues 1-188) (Homo sapiens, UniProt P01116, G12D); construct: G12D or G12C-mutant human KRAS (amino acid residues 1-188) with FLAG tag; made in house; host or cells: E. coli; assay: KRAS Binding Disruption Assay (AlphaScreen; biotinylated KRpep-2d analogue or RAF1-RBD), G12D; conditions: KRAS G12D; geometric mean; read-out: KRAS GMean IC50 (uM) MUTATION: G12D
We begin with a simple list: items and their reported IC50.
Assay Endpoint: IC50

1) O=C(CC1CCNC1)N1[C@@H]2CC[C@H]1CN(c1nc(OCC34CCCN3CCC4)nc3cc(-c4cc(O)cc5ccccc45)ccc13)C2 (stereo partly drawn) [P-0110] :: 0.0001 to 10 µM
2) CCOC(=O)CNC(=O)N1[C@@H]2CC[C@H]1CN(c1nc(OCC34CCCN3CCC4)nc3cc(-c4cc(O)cc5ccccc45)ccc13)C2 [P-0090] :: 0.0001 to 10 µM
3) O=Cc1cccc2[nH]cc(-c3c(F)cc4c(N5C[C@H]6CC[C@@H](C5)N6)nc(OCC56CCCN5CCC6)nc4c3F)c12 [P-0624] :: 0.0001 to 10 µM
4) Fc1c(-c2c[nH]c3ccc(C(F)(F)F)cc23)ccc2c(N3C[C@H]4CC[C@@H](C3)N4)nc(OCC34CCCN3CCC4)nc12 [P-0610] :: 0.0001 to 10 µM
5) CN1CCC[C@H]1COc1nc(N2C[C@H]3CC[C@@H](C2)N3C(=O)CC#N)c2ccc(-c3cc(O)cc4ccccc34)cc2n1 [P-0368] :: 0.0001 to 10 µM
6) OCC(COc1nc(N2C[C@H]3CC[C@@H](C2)N3)c2ccc(-c3cc(O)cc4ccccc34)c(F)c2n1)c1ccccc1 (stereo partly drawn) [P-0584] :: 0.0001 to 10 µM
7) CN1CCc2cc(Oc3nc(N4[C@@H]5CC[C@H]4CNC5)c4ccc(-c5cc(O)cc6ccccc56)cc4n3)ccc2C1 [P-0238] :: 0.0001 to 10 µM
8) CN(C)CC(CN)Oc1nc(N2C[C@H]3CC[C@@H](C2)N3)c2ccc(-c3cc(O)cc4ccccc34)cc2n1 (stereo partly drawn) [P-0074] :: 0.0001 to 10 µM
9) CN1CCC[C@H]1COc1nc(N2[C@@H]3CC[C@H]2CN(C(=O)CC2SC(=O)NC2=O)C3)c2ccc(-c3cc(O)cc4ccccc34)cc2n1 (stereo partly drawn) [P-0292] :: 10 to 100 µM
10) CONC(=O)N1[C@@H]2CC[C@H]1CN(c1nc(OCC3CCCN3C)nc3c(F)c(-c4cc(O)cc5ccccc45)ccc13)C2 (stereo partly drawn) [P-0420] :: 0.0001 to 10 µM
11) CN1CCC[C@H]1CNc1nc(N2C[C@H]3CC[C@@H](C2)N3)c2ccc(-c3cc(O)cc4ccccc34)cc2n1 [P-0016] :: 0.0001 to 10 µM
12) CN1CCC[C@H]1COc1nc(N2[C@@H]3CC[C@H]2CN(CC2(O)CCNCC2)C3)c2ccc(-c3cc(O)cc4ccccc34)cc2n1 [P-0348] :: 10 to 100 µM
13) Oc1cc(-c2ccc3c(N4C[C@H]5CC[C@@H](C4)N5)nc(OCC4(C(F)(F)F)CC4)nc3c2F)c2ccccc2c1 [P-0536] :: 0.0001 to 10 µM
14) CN1CCN(CCCS(=O)(=O)N2[C@@H]3CC[C@H]2CN(c2nc(OCC45CCCN4CCC5)nc4c(F)c(-c5cc(O)cc6ccccc56)ccc24)C3)CC1 [P-0203] :: 0.0001 to 10 µM
15) Clc1cccc2[nH]cc(-c3ccc4c(N5C[C@H]6CC[C@@H](C5)N6)nc(OCC56CCCN5CCC6)nc4c3)c12 [P-0700] :: 0.0001 to 10 µM
16) CN(C)c1ccc(/C=C/c2nc(N3C[C@H]4CC[C@@H](C3)N4)c3cc(Cl)c(-c4c(O)cccc4F)c(F)c3n2)cc1 [P-0355] :: 0.0001 to 10 µM
17) Cc1n[nH]c2cccc(-c3ccc4c(N5C[C@H]6CC[C@@H](C5)N6)nc(OC[C@@H]5CCCN5C)nc4c3)c12 [P-0172] :: 10 to 100 µM
18) O=C(N[C@@H]1CCCNC1)N1[C@@H]2CC[C@H]1CN(c1nc(OCC34CCCN3CCC4)nc3cc(-c4cc(O)cc5ccccc45)ccc13)C2 [P-0143] :: 0.0001 to 10 µM

###

molecular target: G12C-mutant human KRAS (amino acid residues 1-188) (Homo sapiens, UniProt P01116, G12C); construct: G12D or G12C-mutant human KRAS (amino acid residues 1-188) with FLAG tag; made in house; host or cells: E. coli; test: KRAS Binding Disruption Assay (AlphaScreen; biotinylated KRpep-2d analogue or RAF1-RBD), G12C; conditions: geometric mean, read-out: KRAS GMean IC50 (uM) MUTATION: G12C
Assay Endpoint: IC50

1. CO[C@@H]1C[C@@H](COc2nc(N3C[C@H]4CC[C@@H](C3)N4)c3ccc(-c4cc(O)cc5ccccc45)cc3n2)N(C)C1 [P-0060] :: 0.0001 to 10 µM
2. CN1CCC[C@H]1COc1nc(N2C[C@H]3CC[C@@H](C2)N3S(N)(=O)=O)c2ccc(-c3cc(O)cc4ccccc34)c(F)c2n1 [P-0663] :: 0.0001 to 10 µM
3. Cc1ccc2[nH]cc(-c3c(F)cc4c(N5C[C@H]6CC[C@@H](C5)N6)nc(OC[C@@H]5CCCN5C)nc4c3F)c2c1 [P-0758] :: 100 to 1000 µM
4. CN1CCC[C@H]1COc1nc(N2C[C@H]3CC[C@@H](C2)N3)c2ccc(-c3cc(=O)[nH]c4ccccc34)c(F)c2n1 [P-0761] :: 100 to 1000 µM
5. CN1CCC[C@H]1COc1nc(N2C[C@H]3CC[C@@H](C2)N3)c2cc(F)c(-c3c[nH]c4cc(C#N)ccc34)c(F)c2n1 [P-0798] :: 100 to 1000 µM
6. CP(C)(=O)CC(=O)N1[C@@H]2CC[C@H]1CN(c1nc(OCC34CCCN3CCC4)nc3c(F)c(-c4cc(O)cc5ccccc45)ccc13)C2 [P-0773] :: 0.0001 to 10 µM
7. CS(=O)(=O)NC1CN(c2nc(N3C[C@H]4CC[C@@H](C3)N4)c3ccc(-c4cc(O)cc5ccccc45)c(F)c3n2)C1 [P-0702] :: 10 to 100 µM
8. Oc1cc(-c2ccc3c(N4C[C@H]5CC[C@@H](C4)N5)nc(NCC4CCOCC4)nc3c2F)c2ccccc2c1 [P-0701] :: 100 to 1000 µM
9. Oc1cc(-c2ccc3c(N4C[C@H]5CC[C@@H](C4)N5)nc(OCC4CC(O)C4)nc3c2F)c2ccccc2c1 (some centres unmarked) [P-0650] :: 0.0001 to 10 µM
10. Fc1c(-c2c[nH]c3cccc(F)c23)ccc2c(N3C[C@H]4CC[C@@H](C3)N4)nc(OCC34CCCN3CCC4)nc12 [P-0764] :: 0.0001 to 10 µM
11. O=C1N[C@@H](CC(=O)N2[C@@H]3CC[C@H]2CN(c2nc(OCC45CCCN4CCC5)nc4c(F)c(-c5cc(O)cc6ccccc56)ccc24)C3)CO1 [P-0414] :: 0.0001 to 10 µM
12. O=C(CO)N1[C@@H]2CC[C@H]1CN(c1nc(OCC34CCCN3CCC4)nc3cc(-c4cc(O)cc5ccccc45)ccc13)C2 [P-0008] :: 0.0001 to 10 µM
13. Oc1cc(-c2ccc3c(N4C[C@H]5CC[C@@H](C4)N5)nc(OCC4CCCC4)nc3c2F)c2ccccc2c1 [P-0810] :: 10 to 100 µM
14. CN1CCCC12CN(c1nc(N3C[C@H]4CC[C@@H](C3)N4)c3ccc(-c4cc(O)cc5ccccc45)c(F)c3n1)C2 [P-0641] :: 10 to 100 µM
15. CN1CCC[C@H]1COc1nc(N2CC3CCC2CN3)c2cc(Cl)c(-c3cc(O)cc4ccccc34)c(F)c2n1 (some centres unmarked) [P-0030] :: 10 to 100 µM
16. Oc1cc(-c2ccc3c(N4C[C@H]5CC[C@@H](C4)N5)nc(N4C[C@@H](O)[C@@H](O)C4)nc3c2F)c2ccccc2c1 [P-0687] :: 100 to 1000 µM
17. O=C(NCCCN1CCC[C@H]1COc1nc(N2C[C@H]3CC[C@@H](C2)N3)c2ccc(-c3cc(O)cc4ccccc34)c(F)c2n1)OCc1ccccc1 [P-0676] :: 10 to 100 µM
18. CN(C)C(=O)CNc1nc(N2C[C@H]3CC[C@@H](C2)N3)c2ccc(-c3cc(O)cc4ccccc34)cc2n1 [P-0059] :: 10 to 100 µM
19. CN1CCC[C@H]1COc1nc(N2C[C@H]3CC[C@@H](C2)N3)c2ccc(-c3nccc4ccc(F)cc34)c(F)c2n1 [P-0781] :: 100 to 1000 µM
20. Oc1cc(-c2ccc3c(N4C[C@H]5CC[C@@H](C4)N5)nc(OCCN4CCC4)nc3c2F)c2ccccc2c1 [P-0713] :: 10 to 100 µM
21. CN1CCC[C@H]1COc1nc(N2C[C@H]3CC[C@@H](C2)N3)c2ccc(-c3c[nH]c4cccc(Cl)c34)c(F)c2n1 [P-0654] :: 10 to 100 µM
22. OCC1(CO)CN(c2nc(N3C[C@H]4CC[C@@H](C3)N4)c3ccc(-c4cc(O)cc5ccccc45)c(F)c3n2)C1 [P-0686] :: 100 to 1000 µM
23. Fc1c(-c2c[nH]c3cccc(CC4CC4)c23)ccc2c(N3C[C@H]4CC[C@@H](C3)N4)nc(OCC34CCCN3CCC4)nc12 [P-0653] :: 0.0001 to 10 µM
